Target: T1, recombinant HIS-tagged rat nectin-4 (R&D Systems Cat. No. 9997-N4-050) (rat, UniProt D3ZET1 31-348)
T1 construct: Bought protein; HIS tag not described
T1 sequence: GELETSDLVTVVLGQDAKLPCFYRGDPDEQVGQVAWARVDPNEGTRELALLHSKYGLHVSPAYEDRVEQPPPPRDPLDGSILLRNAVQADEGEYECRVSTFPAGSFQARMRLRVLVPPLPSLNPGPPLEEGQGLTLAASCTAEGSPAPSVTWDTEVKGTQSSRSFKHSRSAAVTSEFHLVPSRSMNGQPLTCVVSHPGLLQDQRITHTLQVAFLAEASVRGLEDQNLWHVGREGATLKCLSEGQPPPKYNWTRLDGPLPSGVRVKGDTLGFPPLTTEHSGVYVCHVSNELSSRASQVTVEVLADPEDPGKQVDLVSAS
Assay: SPR Biacore 8K+, ADC captured via anti-human Fc, nectin-4 analyte, 37 C;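 further: Nectin-4 injected over captured ADC at 0 to 600 nM for 2 min association, then 10 min dissociation, with a reference flow cell lacking ADC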
Readout: koff (s⁻¹)
Answer in s⁻¹, number only, no unit symbol.

(Q) Bench note: what koff did Ab1a ADC (Ab1a conjugated as in Formula XI, DAR of 8) (antibody, human IgG1, kappa, L234A L235A, V domains shown, camptothecin analog linker-payload of Formula XI on cysteine thiols after full reduction, DAR of 8 per antibody; positions not given, Antibody-drug conjugate of Ab1a; also called Ab1a (ADC column)) VH: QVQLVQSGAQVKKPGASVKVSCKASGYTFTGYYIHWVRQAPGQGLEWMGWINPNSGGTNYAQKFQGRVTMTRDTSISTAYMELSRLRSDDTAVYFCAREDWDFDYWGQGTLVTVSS VL: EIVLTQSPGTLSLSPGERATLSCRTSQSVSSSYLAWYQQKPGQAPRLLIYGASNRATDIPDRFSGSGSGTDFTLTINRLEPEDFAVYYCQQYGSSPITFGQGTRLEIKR show?
(A) 0.0453

(Q) Bench note: what koff did Ab6 ADC (Ab6 conjugated as in Formula XI, DAR of 8) (antibody, human IgG1, lambda, L234A L235A, V domains shown, camptothecin analog linker-payload of Formula XI on cysteine thiols after full reduction, DAR of 8 per antibody; positions not given, Antibody-drug conjugate of Ab6; also called Ab6 (ADC column)) VH: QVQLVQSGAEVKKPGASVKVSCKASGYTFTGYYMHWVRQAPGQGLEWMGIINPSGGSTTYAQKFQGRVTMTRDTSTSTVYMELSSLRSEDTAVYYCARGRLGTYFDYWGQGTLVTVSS VL: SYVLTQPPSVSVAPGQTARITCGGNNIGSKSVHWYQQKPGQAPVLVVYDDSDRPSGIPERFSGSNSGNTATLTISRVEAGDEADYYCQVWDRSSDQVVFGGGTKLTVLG show?
(A) 0.105

Others:
(Q) Bench note: what koff did Ab8 ADC (Ab8 conjugated as in Formula XI, DAR of 8) (antibody, human IgG1, lambda, L234A L235A, V domains shown, camptothecin analog linker-payload of Formula XI on cysteine thiols after full reduction, DAR of 8 per antibody; positions not given, Antibody-drug conjugate of Ab8; also called Ab8 (ADC column)) VH: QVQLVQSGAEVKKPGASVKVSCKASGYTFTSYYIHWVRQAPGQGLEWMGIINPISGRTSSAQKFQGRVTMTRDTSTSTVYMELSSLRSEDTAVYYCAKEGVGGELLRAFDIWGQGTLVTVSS VL: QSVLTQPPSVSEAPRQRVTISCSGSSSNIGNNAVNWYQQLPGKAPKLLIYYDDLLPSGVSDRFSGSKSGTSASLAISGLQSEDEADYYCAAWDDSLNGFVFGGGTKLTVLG show?
(A) 0.0165
